- system: asc-1 (Rattus norvegicus)
- Sequence (P63116 1-530): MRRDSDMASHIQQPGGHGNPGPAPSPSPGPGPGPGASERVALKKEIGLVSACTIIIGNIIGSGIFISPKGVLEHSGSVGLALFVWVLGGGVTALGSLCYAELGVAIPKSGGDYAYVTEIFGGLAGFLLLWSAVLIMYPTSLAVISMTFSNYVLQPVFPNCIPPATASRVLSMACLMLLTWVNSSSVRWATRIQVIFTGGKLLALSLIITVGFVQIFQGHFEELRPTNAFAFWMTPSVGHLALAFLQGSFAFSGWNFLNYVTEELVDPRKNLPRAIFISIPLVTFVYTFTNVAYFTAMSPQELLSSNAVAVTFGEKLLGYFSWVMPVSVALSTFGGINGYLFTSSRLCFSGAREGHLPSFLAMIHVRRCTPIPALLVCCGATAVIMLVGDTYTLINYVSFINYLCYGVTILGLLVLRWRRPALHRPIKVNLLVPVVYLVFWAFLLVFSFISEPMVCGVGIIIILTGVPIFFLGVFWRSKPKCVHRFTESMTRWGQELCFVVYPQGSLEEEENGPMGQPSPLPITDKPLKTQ
- Sequence (Q794F9 1-527 partner): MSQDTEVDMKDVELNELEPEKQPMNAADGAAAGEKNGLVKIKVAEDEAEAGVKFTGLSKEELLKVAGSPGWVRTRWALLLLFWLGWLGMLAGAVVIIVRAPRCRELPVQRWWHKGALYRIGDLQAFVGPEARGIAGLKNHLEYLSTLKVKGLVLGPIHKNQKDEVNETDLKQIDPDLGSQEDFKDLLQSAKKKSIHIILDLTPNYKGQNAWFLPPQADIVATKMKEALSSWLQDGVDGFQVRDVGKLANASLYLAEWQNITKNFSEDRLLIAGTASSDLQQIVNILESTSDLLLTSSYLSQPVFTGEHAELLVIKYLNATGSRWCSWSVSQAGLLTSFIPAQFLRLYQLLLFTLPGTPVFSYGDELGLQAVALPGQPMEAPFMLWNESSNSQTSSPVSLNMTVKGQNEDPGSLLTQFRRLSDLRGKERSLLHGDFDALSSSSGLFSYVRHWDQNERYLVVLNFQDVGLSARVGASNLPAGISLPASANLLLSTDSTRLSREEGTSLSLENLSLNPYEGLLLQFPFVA
Here the recorded IC50 is given for each entry.

compound	unitAnnotation	IC50
N[C@@H](CCC(=O)Nc1ccc([N+](=O)[O-])cc1)C(=O)O [L-GPNA, L-gamma-glutamyl-4-nitroanilide]	µM	453
N[C@@H](CCC(=O)OCc1ccccc1)C(=O)O [L-glutamate-γ-benzyl ester]	µM	62
N[C@@H](CO)C(=O)O	µM	9.6
N[C@H](CO)C(=O)O	µM	9.4
N[C@@H](CSCc1ccccc1)C(=O)O	µM	86

---

- system: asc-1 (Rattus norvegicus, UniProt P63116)
# IC50 listing for each entry below
recordedMetric: IC50 (µM)

compound	comparativeSign	observedResult
NC(=O)CC[C@H](N)C(=O)O [L-glutamine]	=	943
N[C@H](C(=O)O)c1ccc(O)cc1 [L-4-hydroxyphenylglycine]	=	101
O=C(O)[C@@H]1C[C@@H](O)CN1 [L-trans-4-hydroxyproline]	>	10000
NC(=O)C[C@H](N)C(=O)O [L-asparagine]	=	668
N[C@H](C(=O)O)c1ccc(F)cc1 [L-4-fluorophenylglycine]	=	258
N[C@@H](CSc1ccccc1)C(=O)O [S-phenyl-L-cysteine]	=	29.3
